Biological target: Amyloglucosidase Aspergillus niger (Aspergillus niger, UniProt P69328)
Construct: purchased Sigma
Sequence (P69328 25-640): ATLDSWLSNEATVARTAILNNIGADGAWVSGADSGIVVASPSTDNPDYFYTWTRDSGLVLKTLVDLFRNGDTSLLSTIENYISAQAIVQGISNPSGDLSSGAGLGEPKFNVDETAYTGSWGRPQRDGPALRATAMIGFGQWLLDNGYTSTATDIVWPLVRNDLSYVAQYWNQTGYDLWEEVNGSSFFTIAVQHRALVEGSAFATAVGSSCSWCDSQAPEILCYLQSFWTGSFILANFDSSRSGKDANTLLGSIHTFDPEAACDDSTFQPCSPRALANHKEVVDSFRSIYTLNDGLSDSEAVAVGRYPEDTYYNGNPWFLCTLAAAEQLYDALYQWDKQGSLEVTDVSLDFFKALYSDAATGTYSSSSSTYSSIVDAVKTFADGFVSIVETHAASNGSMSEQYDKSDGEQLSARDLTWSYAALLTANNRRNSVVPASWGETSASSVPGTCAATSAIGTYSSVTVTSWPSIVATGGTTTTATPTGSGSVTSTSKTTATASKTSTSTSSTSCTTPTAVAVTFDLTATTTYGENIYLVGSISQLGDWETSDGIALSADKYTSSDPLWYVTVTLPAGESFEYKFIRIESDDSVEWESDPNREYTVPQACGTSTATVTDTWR
Test: Glycosidase inhibition: Amyloglucosidase Aspergillus niger
Assay type: biochemical
Conditions: compounds tested at 0.8 mM
Provide the recorded inhibition at 800 µM for the entries that follow.

// known answers, use as guide
                                   compound                               measured_on  recorded_measurement
0  OCCN1C[C@H](O)[C@@H](O)[C@H](O)[C@H]1CO [Miglitol, reference compound]  Amyloglucosidase Aspergillus niger (Aspergillus niger, UniProt P69328)                   78%
1  O=C(O)[C@H]1NC[C@H](O)[C@@H](O)[C@@H]1O [Compound G2]  Amyloglucosidase Aspergillus niger (Aspergillus niger, UniProt P69328)                 < 10%
2  O=C(O)[C@@H]1[C@@H](O)[C@H](O)[C@@H](O)CN1CCO [Compound T3]  Amyloglucosidase Aspergillus niger (Aspergillus niger, UniProt P69328)                 < 50%

Respectfully, I request inhibition at 800 µM for each entry included below.
1. OC[C@H]1NC[C@H](O)[C@@H](O)[C@@H]1O [DNJ, 1-deoxynojirimycin, reference compound]
2. O=C(O)CN1C[C@H](O)[C@@H](O)[C@H](O)[C@H]1CO [Compound G6]
3. O=C(O)CN1[C@H](CO)[C@@H](O)[C@H](O)[C@H]1CO [Compound S2]

Response:
["32%", "< 50%", "< 50%"]

Reference source: patent US20110015226A1
